The measurements presented in this section are drawn from paper PMC4454677.

molecular target: recombinant SmPOP (Schistosoma mansoni, UniProt A0A5K4EZK1); test: biochemical; type: biochemical; details: read-out: IC50 (μM) SmPOP
Peptide text beside a SMILES is read from it. * marks the point of attachment. Cbz = O=C(OCc1ccccc1)*
I'd appreciate it if you could supply IC50 values for the items below.
Give bare numbers, in µM.

Reference set, count: 2
MOLECULE: N=C(N)NCCC[C@H](NC(=O)OCc1ccccc1)C(=O)N1CCC[C@H]1C=O [Z-Arg-Pro-CHO] (Cbz-Arg-Pro-aldehyde)
IC50 (µM): 1.3
--
MOLECULE: O=C[C@@H]1CCCN1C(=O)[C@H](Cc1ccc(O)cc1)NC(=O)OCc1ccccc1 [Z-Tyr-Pro-CHO] (Cbz-Tyr-Pro-aldehyde)
IC50 (µM): 4.4

Which IC50 is listed for NCCCC[C@H](NC(=O)OCc1ccccc1)C(=O)N1CCC[C@H]1C=O [Z-Lys-Pro-CHO] (Cbz-Lys-Pro-aldehyde) ?
3

---

target: human POP (HsPOP) (Homo sapiens); test: biochemical; conditions: HsPOP; Z-Gly-Pro-AMC; pH 8.0; mean ± S.D., n=3; read-out: IC50 (μM) HsPOP
Where a name gives a salt, the structure may show the parent alone.
EXPERIMENTAL_READOUT: IC50 (µM)
Give bare numbers, in µM.

Can you look up IC50 on human POP (HsPOP) (Homo sapiens) for CC(C)c1ccc(C(=O)c2cccs2)c(SCCCCCCCCN(C)C)n1 [Y-29794 oxalate] ?
0.49

---

molecular target: human POP (HsPOP) (Homo sapiens, UniProt P48147); experiment: biochemical; details: read-out: IC50 (μM) HsPOP
Peptide text beside a SMILES is read from it. * marks the point of attachment. Cbz = O=C(OCc1ccccc1)*; CH2Cl = ClC*
I'd appreciate it if you could supply IC50 values for the items below.
Answers are plain numbers, in µM.

Reference set, count: 4
COMPOUND: O=C[C@@H]1CCCN1C(=O)[C@H](Cc1ccc(O)cc1)NC(=O)OCc1ccccc1 [Z-Tyr-Pro-CHO] (Cbz-Tyr-Pro-aldehyde)
NUMERIC_READOUT: 11.4
--
COMPOUND: N=C(N)NCCC[C@H](NC(=O)OCc1ccccc1)C(=O)N1CCC[C@H]1C(=O)CCl [Z-Arg-Pro-CMK] (Cbz-Arg-Pro-CH2Cl)
NUMERIC_READOUT: 0.0048
--
COMPOUND: C[C@H](NC(=O)OCc1ccccc1)C(=O)N1CCC[C@H]1C=O [Z-Ala-Pro-CHO] (Cbz-Ala-Pro-aldehyde)
NUMERIC_READOUT: 6.1
--
COMPOUND: C[C@H](NC(=O)OCc1ccccc1)C(=O)N1CCC[C@H]1C(=O)CCl [Z-Ala-Pro-CMK, Z-Ala-Pro-chloromethyl ketone] (Cbz-Ala-Pro-CH2Cl)
NUMERIC_READOUT: 0.0168

I need IC50 for every entry listed below, if you could help.
1. NCCCC[C@H](NC(=O)OCc1ccccc1)C(=O)N1CCC[C@H]1C=O [Z-Lys-Pro-CHO] (Cbz-Lys-Pro-aldehyde)
2. N=C(N)NCCC[C@H](NC(=O)OCc1ccccc1)C(=O)N1CCC[C@H]1C=O [Z-Arg-Pro-CHO] (Cbz-Arg-Pro-aldehyde)

7.2
2.4

---

biological target: recombinant SmPOP (Schistosoma mansoni, UniProt A0A5K4EZK1); experiment: biochemical; assay type: biochemical; settings: read-out: IC50 (μM) SmPOP
Structures can show the parent of a compound that is named as a salt. Peptide text beside a SMILES is read from it. * marks the point of attachment. Cbz = O=C(OCc1ccccc1)*; CH2Cl = ClC*
I'd appreciate it if you could supply IC50 values for the items below.
Numbers only, in µM.

Reference set, count: 4
MOLECULE: O=C[C@@H]1CCCN1C(=O)CNC(=O)OCc1ccccc1 [Z-Gly-Pro-CHO] (Cbz-Gly-Pro-aldehyde)
EXPERIMENTAL_READOUT: IC50
NUMERIC_READOUT: 6.1

MOLECULE: N=C(N)NCCC[C@H](NC(=O)OCc1ccccc1)C(=O)N1CCC[C@H]1C(=O)CCl [Z-Arg-Pro-CMK] (Cbz-Arg-Pro-CH2Cl)
EXPERIMENTAL_READOUT: IC50
NUMERIC_READOUT: 0.0029

MOLECULE: C[C@H](NC(=O)OCc1ccccc1)C(=O)N1CCC[C@H]1C=O [Z-Ala-Pro-CHO] (Cbz-Ala-Pro-aldehyde)
EXPERIMENTAL_READOUT: IC50
NUMERIC_READOUT: 3.1

MOLECULE: C[C@H](NC(=O)OCc1ccccc1)C(=O)N1CCC[C@H]1C(=O)CCl [Z-Ala-Pro-CMK, Z-Ala-Pro-chloromethyl ketone] (Cbz-Ala-Pro-CH2Cl)
EXPERIMENTAL_READOUT: IC50
NUMERIC_READOUT: 0.0032

I need IC50 for every entry listed below, if you could help.
1. CC(C)c1ccc(C(=O)c2cccs2)c(SCCCCCCCCN(C)C)n1 [Y-29794 oxalate]
2. O=C[C@@H]1CCCN1C(=O)[C@@H]1CCCN1C(=O)OCc1ccccc1 [Z-Pro-Pro-CHO, benzyloxycarbonyl-L-prolyl-L-prolinal] (Cbz-Pro-Pro-aldehyde)

1: 8.6; 2: 0.16

---

Target: human POP (HsPOP) (Homo sapiens, UniProt P48147)
Sequence (P48147 1-710): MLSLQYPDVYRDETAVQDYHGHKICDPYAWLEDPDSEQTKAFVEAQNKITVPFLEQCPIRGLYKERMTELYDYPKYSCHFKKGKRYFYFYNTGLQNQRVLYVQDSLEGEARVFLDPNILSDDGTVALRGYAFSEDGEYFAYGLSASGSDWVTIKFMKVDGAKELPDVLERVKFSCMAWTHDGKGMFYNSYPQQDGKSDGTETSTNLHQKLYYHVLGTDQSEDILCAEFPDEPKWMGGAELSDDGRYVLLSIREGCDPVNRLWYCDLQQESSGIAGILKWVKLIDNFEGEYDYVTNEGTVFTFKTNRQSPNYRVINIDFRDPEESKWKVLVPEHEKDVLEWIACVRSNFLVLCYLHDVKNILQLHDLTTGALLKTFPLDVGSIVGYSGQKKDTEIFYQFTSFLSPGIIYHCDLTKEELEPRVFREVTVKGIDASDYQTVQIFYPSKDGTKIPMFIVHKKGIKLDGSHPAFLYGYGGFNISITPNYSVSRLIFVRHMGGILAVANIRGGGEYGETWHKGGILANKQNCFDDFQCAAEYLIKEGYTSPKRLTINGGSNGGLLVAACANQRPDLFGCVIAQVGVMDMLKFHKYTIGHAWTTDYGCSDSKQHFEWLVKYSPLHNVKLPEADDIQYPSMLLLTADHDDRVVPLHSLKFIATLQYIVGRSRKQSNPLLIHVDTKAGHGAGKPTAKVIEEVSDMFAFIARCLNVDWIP
Assay: biochemical
Settings: read-out: IC50 human POP
EXPERIMENTAL_READOUT: IC50 (nM)
Answers are plain numbers, in nM.

Which IC50 is listed for O=C([C@@H]1C[C@@H](O)CN1C(=O)CCCOc1ccccc1/C=C/c1ccccc1)N1CCSC1 ?
83
